Values from PubChem BioAssay (NCATS)

# Assay Method Text: Stat Signaling Pathway (AID 446);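 further: ME-180 cervical cancer cells given 40 pM IL-6 alongside compound; SIE-controlled beta-lactamase reporter measured as 460/530 nm FRET emission ratio; on the % scale 0 is the no-effect control and ±100 the full control effect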
# Study Conditions: ME-180 (cervical carcinoma) SIE beta-lactamase reporter, IL-6 stimulated, 5 h; at 7.69 µM (top of the series) unless noted
Records with an inconclusive call do not appear. Activity calls are given as the source filed them. The call rests on the fitted dose curve; in most records, active means well fitted curve in either direction with a large enough effect (not every such curve was filed as active); inconclusive means small, poorly fitted or top-dose-only effect, or another doubt; inactive means flat fitted curve, though single readings scatter.

| Molecule Smiles | activity, negative = inhibition |
| --- | --- |
| COc1cccc(Cn2c(=O)c(C)nc3cnc(N4CCN(C)CC4)nc32)c1 | -11.6% (inactive) |
| CN(Cc1ccco1)c1ncnc2ccc(-c3ccccc3C(F)(F)F)cc12 | -19.3% (inactive) |
| Cn1c(=O)c(-c2cc(F)cc(F)c2)nc2cnc(Oc3ccccc3)nc21 | 0.814% (inactive) |
| COc1cccc(-c2ccc3ncnc(N4CCN(C)CC4)c3c2)c1 | -6.09% (inactive) |
| COC(=O)N1CCC2(CC1)CCN(c1ccccc1)CC2 | 7.52% (inactive) |
| CCNc1ncc2ncc(=O)n(C3CC3)c2n1 | -6.01% (inactive) |
| CC(=O)N1CCC2(CC1)CN(C(c1ccccc1)c1ccccc1)C2 | -8.55% (inactive) |
| O=C(Nc1ccccc1)N1CCCC2(CCN(C(=O)c3ccco3)CC2)C1 | -4.1% (inactive) |
| COc1ccc(Oc2ncc3nc(-c4ccc(OC)cc4)c(=O)n(C)c3n2)cc1 | -16.5% (inactive) |
| COc1ncc2ncc(=O)n(Cc3cccs3)c2n1 | -3.48% (inactive) |
| O=C(c1cc(C(F)(F)F)cc(C(F)(F)F)c1)N1CCC2(CC1)CN(c1ccccn1)C2 | -17.5% (inactive) |
| Cc1noc(C)c1C(=O)N1CCC2(CCN(C(=O)NC(C)C)CC2)CC1 | 3.31% (inactive) |
| FC(F)(F)c1ccccc1-c1cc(NCCN2CCOCC2)ncn1 | 14.2% (inactive) |
| COCC(=O)N1CCC2(CC1)CN(C(=O)Nc1cccc(F)c1)C2 | -2.66% (inactive) |
| CNc1ccnc(-c2ccccc2C(F)(F)F)n1 | -22.6% (inactive) |
| O=S(=O)(c1ccccc1)N1CCC2(CCCN(c3ncccn3)C2)CC1 | -0.568% (inactive) |
| CN(C)c1ncc2nc(-c3cc(F)cc(F)c3)c(=O)n(CCC#N)c2n1 | 2.22% (inactive) |
| O=C(c1ccco1)N1CCC2(CC1)CN(c1ccccc1)C2 | -9.25% (inactive) |
| COc1ncc2nc(-c3ccccc3)c(=O)n(-c3ccccc3)c2n1 | -8.81% (inactive) |
| COC(=O)c1c(-c2cc(OC)c(OC)c(OC)c2)c2ccc(OCc3ccccn3)cc2c(=O)n1-c1ccc(N)cc1 | -8.64% [at 38 µM] (inactive) |
| N#Cc1ccccc1-c1nc(NCCN2CCOCC2)c2ccccc2n1 | 2.02% (inactive) |
| O=C(c1cnccn1)N1CCC[C@@]2(CCN(c3ccncc3)C2)C1 | 5.94% (inactive) |
| COc1cccc(Nc2ncc3nc(C)c(=O)n(C4CC4)c3n2)c1 | -13.4% (inactive) |
| COC(=O)N1CCC2(CCCN(c3ccc(-c4ccccc4)cc3)C2)CC1 | 3.59% (inactive) |
| O=S(=O)(c1ccccc1)N1CCC[C@@]2(CCN(c3ccccc3)C2)C1 | -4.22% (inactive) |
| COCC(=O)N1CCC2(CC1)CCN(c1ccccn1)CC2 | -8.73% (inactive) |
| COc1ccc(-c2nc3cnc(Oc4cccc(Cl)c4)nc3n(CCC#N)c2=O)cc1 | -7.46% (inactive) |
| Cc1noc(C)c1-c1cncnc1NCCN1CCOCC1 | -2.23% (inactive) |
| O=C(c1ccncc1)N1CCC[C@@]2(CCN(c3ccccn3)C2)C1 | -0.0595% (inactive) |
| O=c1c(-c2ccc(F)cc2)nc2cnc(Oc3cccc(Cl)c3)nc2n1C1CC1 | -8.35% (inactive) |
| c1ccc2c(-n3ccnc3)nc(-c3ccoc3)nc2c1 | 7.69% (inactive) |
| CC(=O)NCCNc1ccnc(-c2ccccc2C(F)(F)F)n1 | 11.9% (inactive) |
| COc1ccccc1-c1cncnc1Nc1ccc(F)cc1 | 4.34% (inactive) |
| O=C(c1csnn1)N1CCC2(CC1)CN(c1ccncc1)C2 | -7.18% (inactive) |
| CC(=O)NCCNc1nc(-c2ccccc2Cl)nc2ccccc12 | -10.3% (inactive) |
| c1cncc(CNc2ncncc2-c2ccc3c(c2)OCO3)c1 | 0.562% (inactive) |
| COc1ccccc1-c1nccc(NC2CCNCC2)n1 | 27.9% (inactive) |
| COc1ccc(NC(=O)N2CC[C@@]3(CCCN(C(=O)c4cccn4C)C3)C2)cc1 | 8.48% (inactive) |
| CS(=O)(=O)Nc1cccc(-c2ccc3ncnc(NC4CCNCC4)c3c2)c1 | 4.8% (inactive) |
| COc1ccc(-n2c(=O)cnc3cnc(N4CCN(C)CC4)nc32)cc1 | 2.91% (inactive) |
| Cc1cnc(CNc2ncncc2-c2cccc(C#N)c2)cn1 | 9.2% (inactive) |
| CN(C)c1ncc2nc(-c3cccs3)c(=O)n(CCC#N)c2n1 | 4.64% (inactive) |
| COc1ccc(CNc2ccnc(-c3ccc4c(c3)OCO4)n2)c(OC)c1 | -2.09% (inactive) |
| COc1cccc(-c2ccc3ncnc(NC4CCNCC4)c3c2)c1 | -1.25% (inactive) |
| O=C(c1ccco1)N1CCC2(CC1)CN(C(c1ccccc1)c1ccccc1)C2 | -4.65% (inactive) |
